src = ChEMBL document CHEMBL2016524

Tested on: MCF7
Assay: Growth inhibition of human MCF7 cells at 10 uM after 24 hrs by SRB assay
Format: functional
Conditions: MCF7, 24 h, read-out: GI
Can you tell me inhibition of growth at 10 µM for the items I'm about to list?
Give bare numbers, in %.

# count of solved cases: 4
[[record]]
compound = "CCOC(=O)C1=C(C)NC(=S)NC1c1cn(-c2ccccc2)nc1-c1ccccc1 (centres undefined)"
measurement_unit = "%"
value_reported = 30.4

[[record]]
compound = "CC1=C(C(=O)Nc2ccccc2)C(c2cn(-c3ccccc3)nc2-c2ccc(Cl)cc2)NC(=O)N1 (centres undefined)"
measurement_unit = "%"
value_reported = 19.6

[[record]]
compound = "CC1=C(C(=O)Nc2ccccc2)C(c2cn(-c3ccccc3)nc2-c2ccc(Cl)cc2)NC(=S)N1 (centres undefined)"
measurement_unit = "%"
value_reported = 24.2

[[record]]
compound = "CCOC(=O)C1=C(C)NC(=O)NC1c1cn(-c2ccccc2)nc1-c1ccc(Cl)cc1 (centres undefined)"
measurement_unit = "%"
value_reported = 17.1


We now examine a further compound.
*Q* Annotate the compound CC1=C(C(=O)Nc2ccc(C)cc2)C(c2cn(-c3ccccc3)nc2-c2ccc(Cl)cc2)NC(=S)N1 (centres undefined) with its measured inhibition of growth at 10 µM.
*A* 63.7
